System: T. gondii RH strain (RH-Tub-eYFP) tachyzoites
Protocol description: microbe, parasite or virus in culture
Assay type: cell-based, Toxoplasma gondii
Run conditions: T. gondii, 72 h, 2 μg/mL; values are growth (% of control)
// classify: if (Replicate 1 < 20) 1 (yes) else 0 (no)

Study these solved cases before continuing.
Compound	Classification
CCCCCC1=C/C(=C/c2[nH]c(-c3ccc[nH]3)cc2OC)N=C1C	0 (no)
CCCC[C@H]1C(=O)O[C@H](C)[C@H](NC(=O)c2cccc(NC=O)c2O)C(=O)O[C@@H](C)[C@@H]1OC(=O)CC(C)C [Antimycin A3]	0 (no)
O=C1NC(c2c[nH]c3ccccc23)=C/C1=C1\C(=O)Nc2ccccc21	1 (yes)
CC(C)=CCC[C@H](C)[C@H]1CC[C@]2(C)C[C@H]3[C@H](C(=O)C[C@@]3(C)O)/C(C=O)=C\C[C@@H]12	1 (yes)
COC(=O)c1ccc(CCCCCCCCCCc2ccc(C(=O)OC)nc2)cn1 [Penicolinate A]	1 (yes)
CO[C@@H]1[C@@H](O[C@@H]2O[C@H](C)[C@@H](O[C@H]3C[C@@](C)(O)[C@@H](OC(=O)CC(C)C)[C@H](C)O3)[C@H](N(C)C)[C@H]2O)[C@@H](CC=O)C[C@@H](C)[C@@H](O)/C=C/C=C/C[C@@H](C)OC(=O)C[C@H]1OC(C)=O [Josamycin (Leucomycin A3), reference compound]	1 (yes)

Input: Strictly below 20 in Replicate 1? CO[C@@H]1[C@@H](OC(N)=O)[C@@H](O)[C@H](Oc2ccc3c(O)c(NC(=O)c4ccc(O)c(CC=C(C)C)c4)c(=O)oc3c2C)OC1(C)C [Novobiocin, reference compound]
Output: 1 (yes)
